# system: Ephrin type-A receptor 4 (Homo sapiens, UniProt P54764)
# Sequence (P54764 whole entry): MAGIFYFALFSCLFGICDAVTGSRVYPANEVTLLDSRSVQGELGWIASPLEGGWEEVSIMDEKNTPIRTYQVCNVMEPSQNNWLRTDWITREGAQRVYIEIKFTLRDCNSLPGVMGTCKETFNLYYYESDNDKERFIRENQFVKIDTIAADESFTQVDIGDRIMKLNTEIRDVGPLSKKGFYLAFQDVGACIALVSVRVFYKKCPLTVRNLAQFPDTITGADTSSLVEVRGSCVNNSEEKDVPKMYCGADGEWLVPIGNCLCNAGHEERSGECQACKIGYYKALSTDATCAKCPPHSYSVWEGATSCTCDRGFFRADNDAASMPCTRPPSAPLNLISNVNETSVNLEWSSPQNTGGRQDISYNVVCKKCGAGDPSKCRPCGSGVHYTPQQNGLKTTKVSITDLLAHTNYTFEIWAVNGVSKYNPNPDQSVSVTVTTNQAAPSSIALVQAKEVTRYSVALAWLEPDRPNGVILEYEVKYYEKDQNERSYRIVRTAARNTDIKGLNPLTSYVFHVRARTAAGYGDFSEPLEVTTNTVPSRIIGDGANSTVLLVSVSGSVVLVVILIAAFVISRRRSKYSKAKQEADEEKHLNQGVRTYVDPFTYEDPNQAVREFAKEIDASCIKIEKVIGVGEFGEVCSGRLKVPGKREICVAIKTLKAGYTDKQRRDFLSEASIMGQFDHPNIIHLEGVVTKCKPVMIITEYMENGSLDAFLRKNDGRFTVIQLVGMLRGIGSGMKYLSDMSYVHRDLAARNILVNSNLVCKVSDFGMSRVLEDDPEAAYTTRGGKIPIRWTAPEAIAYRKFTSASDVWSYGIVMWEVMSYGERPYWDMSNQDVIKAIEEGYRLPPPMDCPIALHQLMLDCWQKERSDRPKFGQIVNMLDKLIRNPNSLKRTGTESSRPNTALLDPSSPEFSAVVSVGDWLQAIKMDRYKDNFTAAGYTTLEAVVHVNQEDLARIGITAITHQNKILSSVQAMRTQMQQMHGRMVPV
Non-standard residues stand in square brackets, D forms with d. Residues, ends and D or L forms follow the SMILES beside them. *: point of attachment. Phe(4-(2-MeO-Ph)) = COc1ccccc1-c1ccc(C[C@H](N)C(=O)O)cc1; Cyclohexanoyl(1S,3S-3-NH2) = N[C@H]1CCC[C@H](C(=O)*)C1; Trp(5-OH) = N[C@@H](Cc1c[nH]c2ccc(O)cc12)C(=O)O; NHPh(4-CH2-morpholino) = c1cc(N*)ccc1CN1CCOCC1; Trp(7-aza) = N[C@@H](Cc1c[nH]c2ncccc12)C(=O)O; Bip = N[C@@H](Cc1ccc(-c2ccccc2)cc1)C(=O)O; hArg = N=C(N)NCCCC[C@H](N)C(=O)O; GABA = NCCCC(=O)O; X3 = Oc1cccnc1N*
measurement type: pKd
Please express pKd as -log10 of the molar concentration.

{"compound": "C[C@H](N)C(=O)N[C@@H](Cc1c[nH]c2ccccc12)C(=O)N[C@@H](Cc1ccc(-c2ccccc2)cc1)C(=O)N[C@@H](CCCCNC(=N)N)C(N)=O (HELM PEPTIDE1{A.W.[O=C([C@H](Cc1ccc(-c2ccccc2)cc1)N[*:1])[*:2]].[N=C(N)NCCCC[C@H](N[*:1])C(=O)[*:2]].[am]}$$$$V2.0)", "system": "Ephrin type-A receptor 4 (Homo sapiens, UniProt P54764)", "reported": 5.52}
{"compound": "N=C(N)NCCCC[C@H](NC(=O)[C@H](Cc1ccc(-c2ccccc2)cc1)NC(=O)[C@H](Cc1c[nH]c2ncccc12)NC(=O)CCCN)C(N)=O (H-[GABA][Trp(7-aza)][Bip][hArg]-NH2)", "system": "Ephrin type-A receptor 4 (Homo sapiens, UniProt P54764)", "reported": 4.79}
{"compound": "COc1ccccc1-c1ccc(C[C@H](NC(=O)[C@H](Cc2c[nH]c3ccc(O)cc23)NC(=O)[C@H]2CCC[C@H](N)C2)C(=O)N[C@@H](CCCCNC(=N)N)C(=O)NCC(=O)Nc2ccc(CN3CCOCC3)cc2)cc1 ({Cyclohexanoyl(1S,3S-3-NH2)}-[Trp(5-OH)][Phe(4-(2-MeO-Ph))][hArg]G-{NHPh(4-CH2-morpholino)})", "system": "Ephrin type-A receptor 4 (Homo sapiens, UniProt P54764)", "reported": 7.11}

Please look at the following compound next.
# return recorded pKd for entry N=C(N)NCCCC[C@H](NC(=O)[C@H](Cc1ccc(-c2ccccc2)cc1)NC(=O)[C@H](Cc1c[nH]c2ccc(O)cc12)NC(=O)CCCN)C(=O)NCC(=O)Nc1ncccc1O (H-[GABA][Trp(5-OH)][Bip][hArg]G-X3)
6.31

----------
# system: Ephrin type-A receptor 4 (Homo sapiens)
Non-standard residues stand in square brackets, D forms with d. Residues, ends and D or L forms follow the SMILES beside them. Trp(6-OMe) = COc1ccc2c(C[C@H](N)C(=O)O)c[nH]c2c1; Trp(5-OH) = N[C@@H](Cc1c[nH]c2ccc(O)cc12)C(=O)O; Bip = N[C@@H](Cc1ccc(-c2ccccc2)cc1)C(=O)O; 1Nal = N[C@@H](Cc1cccc2ccccc12)C(=O)O; hArg = N=C(N)NCCCC[C@H](N)C(=O)O; GABA = NCCCC(=O)O
The label is label 1 for deltaH below -9 kcal/mol and label 0 for deltaH equal to or exceeding -9 kcal/mol.

Check out these entries, answers already filled in.
{"compound": "Cc1ccc(-c2ccc(C[C@H](NC(=O)[C@H](Cc3c[nH]c4ccc(O)cc34)NC(=O)CCCN)C(=O)N[C@@H](CCCCNC(=N)N)C(N)=O)cc2)cc1", "group label": "label 1"}
{"compound": "COc1ccc2c(C[C@H](NC(=O)CCCN)C(=O)N[C@@H](Cc3ccc(-c4ccccc4)cc3)C(=O)N[C@@H](CCCCNC(=N)N)C(N)=O)c[nH]c2c1 (H-[GABA][Trp(6-OMe)][Bip][hArg]-NH2)", "group label": "label 1"}
{"compound": "N=C(N)NCCCC[C@H](NC(=O)[C@H](Cc1ccc(-c2ccccc2)cc1)NC(=O)[C@H](Cc1c[nH]c2ccc(O)cc12)NC(=O)[C@H]1CC[C@H](N)C1)C(N)=O", "group label": "label 0"}
{"compound": "N=C(N)NCCCC[C@H](NC(=O)[C@H](Cc1cccc2ccccc12)NC(=O)[C@H](Cc1c[nH]c2ccc(O)cc12)NC(=O)CCCN)C(N)=O (H-[GABA][Trp(5-OH)][1Nal][hArg]-NH2)", "group label": "label 0"}

Pending compound:
I'd appreciate it if you could check whether `N=C(N)NCCCC[C@H](NC(=O)[C@H](Cc1ccc(-c2ccccc2)cc1)NC(=O)[C@H](Cc1c[nH]c2ccc(O)cc12)NC(=O)[C@@H]1CCC[C@@H](N)C1)C(N)=O` has deltaH smaller than -9 kcal/mol.
label 1
